The measured values listed here are drawn from patent US20140135357A1.

- Assay Details: clinical
- Assay Context: human, in vivo, 6 mg/m2, Cmax
Listing of entries alongside the reported Cmax.
State just the number; it will be interpreted in ng/mL.

Reference set, count: 2
[
  {
    "Molecule": "CC[C@@]1(OC(=O)[C@@H](C)O)C(=O)OCc2c1cc1n(c2=O)Cc2cc3c(CN(C)C)c(O)ccc3nc2-1 [TLC-U1, S,R-topotecan lactate]",
    "Measured Number": 28.5
  },
  {
    "Molecule": "CC[C@@]1(O)C(=O)OCc2c1cc1n(c2=O)Cc2cc3c(CN(C)C)c(O)ccc3nc2-1 [Topotecan, reference compound]",
    "Measured Number": 4.83
  }
]

Now look at this entry.
stdin: Which Cmax reading was recorded for the molecule CC[C@@]1(OC(=O)[C@H](C)O)C(=O)OCc2c1cc1n(c2=O)Cc2cc3c(CN(C)C)c(O)ccc3nc2-1 [TLC-U2, S,S-topotecan lactate] ?
stdout: 7.52

* * *

- Assay Details: clinical
- Assay Context: human, in vivo, 40 mg/m2, Tmax
Assay Endpoint: Tmax (min)
Output spec: scalar in min, unitless text.

stdin: // returns reported Tmax for input CC[C@@]1(OC(=O)[C@H](C)O)C(=O)OCc2c1cc1n(c2=O)Cc2cc3c(CN(C)C)c(O)ccc3nc2-1 [TLC-U2, S,S-topotecan lactate]
stdout: 26.7

stdin: I'd like to know its Tmax. The compound in question is CC[C@@]1(OC(=O)[C@@H](C)O)C(=O)OCc2c1cc1n(c2=O)Cc2cc3c(CN(C)C)c(O)ccc3nc2-1 [TLC-U1, S,R-topotecan lactate]
stdout: 23.5

stdin: Bench note: what Tmax did CC[C@@]1(O)C(=O)OCc2c1cc1n(c2=O)Cc2cc3c(CN(C)C)c(O)ccc3nc2-1 [Topotecan, reference compound] show?
stdout: 51

* * *

- Assay Details: clinical
- Assay Context: human, in vivo, 1.3 mg/m2, Tmax
Assay Endpoint: Tmax (min)
Reply numerically in min, unit not repeated.

stdin: What does the data say about its Tmax? Entry: CC[C@@]1(O)C(=O)OCc2c1cc1n(c2=O)Cc2cc3c(CN(C)C)c(O)ccc3nc2-1 [Topotecan, reference compound]
stdout: 54.4

* * *

- Assay Details: clinical
- Assay Context: human, in vivo, 6 mg/m2, AUC0-t
Assay Endpoint: AUC0-t
Give your result as the value with the unit written after it.

Below are worked cases with known answers.
[
  {
    "Compound": "CC[C@@]1(OC(=O)[C@H](C)O)C(=O)OCc2c1cc1n(c2=O)Cc2cc3c(CN(C)C)c(O)ccc3nc2-1 [TLC-U2, S,S-topotecan lactate]",
    "AUC0-t": "11.6 ng·h/mL"
  },
  {
    "Compound": "CC[C@@]1(OC(=O)[C@@H](C)O)C(=O)OCc2c1cc1n(c2=O)Cc2cc3c(CN(C)C)c(O)ccc3nc2-1 [TLC-U1, S,R-topotecan lactate]",
    "AUC0-t": "44.3 ng·h/mL"
  }
]

stdin: // lookup AUC0-t for CC[C@@]1(O)C(=O)OCc2c1cc1n(c2=O)Cc2cc3c(CN(C)C)c(O)ccc3nc2-1 [Topotecan, reference compound]
stdout: 21.5 ng·h/mL

* * *

- Assay Details: clinical
- Assay Context: human, in vivo, 3 mg/m2, t1/2
Assay Endpoint: half-life

[
  {
    "Compound": "CC[C@@]1(OC(=O)[C@H](C)O)C(=O)OCc2c1cc1n(c2=O)Cc2cc3c(CN(C)C)c(O)ccc3nc2-1 [TLC-U2, S,S-topotecan lactate]",
    "half-life": "2.34 h"
  }
]

stdin: Endpoint output: half-life of CC[C@@]1(O)C(=O)OCc2c1cc1n(c2=O)Cc2cc3c(CN(C)C)c(O)ccc3nc2-1 [Topotecan, reference compound] . Value?
stdout: 7.03 h

stdin: Which value of half-life has been reported for CC[C@@]1(OC(=O)[C@@H](C)O)C(=O)OCc2c1cc1n(c2=O)Cc2cc3c(CN(C)C)c(O)ccc3nc2-1 [TLC-U1, S,R-topotecan lactate] in the records?
stdout: 2.65 h
